# PROTOCOL: growth suppression of PTEN-deleted HCT116, pilot screen, cell-based, HCT116 clonal line, CellTiter-Glo (AID 824);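 note: 0% = 20 µM Hyamine control and 100% = vehicle cell control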
# MEASUREMENT_CONTEXT: 60 h, at 10 µM, hits give low values
Results filed as inconclusive are left out.

MOLECULE | viability / %
Clc1ccc(C2CC(c3cccs3)n3ncnc3N2)cc1Cl (stereo unspecified) | 72.9
C=CCOc1cccc(C2c3c(oc4ccc(F)cc4c3=O)C(=O)N2CCCN2CCOCC2)c1 (stereo unspecified) | 93.5
CCC(Cc1ccccc1)NC(=O)CN1C(=O)CSc2ncccc21 (stereo unspecified) | 75.7
COc1ccccc1C(=O)Nc1nnc(-c2ccc(Cl)cc2)o1 | 98.1
COc1cccc(C2CC(c3ccccc3OC)n3ncnc3N2)c1 (stereo unspecified) | 71.2
CC(C)c1cc(NC(=O)CSc2nnc(-c3ccccc3F)n2C)on1 | 101
Cc1sc2nc(SCC(=O)N(CCO)CCO)n(C3CCCCC3)c(=O)c2c1C | 104
CCOC(=O)C1CCN(C(=O)c2ccc(Cl)c(NC3=NC4CS(=O)(=O)CC4S3)c2)CC1 (stereo unspecified) | 89.4
Oc1c(/C=N/c2ncn[nH]2)ccc2ccccc12 | 101
c1ccc2c(c1)nc(NCC1CCCO1)c1nnnn12 (stereo unspecified) | 97.6
COC(=O)CCC(=O)Nc1ccc(NC(=O)CCC(=O)OC)cc1 | 96.9

* * *

# PROTOCOL: inhibitors of the yeast RAM network, pilot screen, dse1pr::URA3 reporter, 5-FOA selection (AID 869);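 note: 0% = DMSO wells with no growth and 100% = 10 µM 1-NA-PP1 with full growth; RAM network block rescues cells from 5-FOA so hits raise OD615 growth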
# MEASUREMENT_CONTEXT: S. cerevisiae dse1pr::URA3 5-FOA growth, OD615, 2 d; at 10 µM; hits give high values; strain carries analog-sensitive mutant Cbk1 kinase
The entries below come with measured inhibition values attached.

MOLECULE | RESULT_UNIT | inhibition
O=C(CNS(=O)(=O)c1cccc2nsnc12)NC1CCCCC1 | % | 1.06
O=C(CN1C(=O)CSc2ncccc21)N1CCOCC1 | % | -0.115
Cn1c(=O)cc(N2CCCCC2)[nH]c1=O | % | 1.59
Cc1occc1C(=O)NC(C)CCc1ccccc1 (configuration not stated) | % | 3.1
COc1ccc(OC)c2[nH]c(=O)c(CCNC(C)=O)cc12 | % | 2.21
O=S1(=O)N=C(Nc2ccc(O)c(CN3CCCCC3)c2)c2ccccc21 | % | 2.89
C=CCn1c(CSc2nc3ccccc3s2)nnc1SCC(=O)OCC | % | -0.335
CCCc1cc(C(=O)Nc2cccc(C(C)=O)c2)no1 | % | 1.75
COc1ccc(-c2nc(CS(=O)CC(=O)NCCC3=CCCCC3)c(C)o2)cc1 (configuration not stated) | % | 0.475
Cc1cc(=O)[nH]c(Cc2ccc(OC(C)C)cc2)n1 | % | 1.98
O=C(NCCCN1CCOCC1)c1ccc(CS(=O)(=O)c2ccc(Br)cc2)o1 | % | 2.23
O=C(Cn1c(N2CCN(c3ccccc3)CC2)nc2ccccc21)c1ccccc1 | % | 2.6
O=C1N2CN(C(c3ccccc3)c3ccccc3)CN=C2SC1(CO)CO | % | 1.88
C=CCc1c(C)nc(SC)nc1Nc1ccc(C(C)=O)cc1 | % | 1.53
COc1ccc(C)cc1NC(=O)CSc1nnc(-c2ccco2)n1Cc1ccco1 | % | 2.08
Cc1ccc(Cl)cc1N1CCN(C(=O)COc2ccc(S(=O)(=O)NC(C)C)cc2)CC1 | % | 1
NC(=O)CSc1nc2ccccc2n1-c1ccccc1 | % | 0.02
Cc1cc(NCc2ccccc2)nc(-c2ccccc2O)n1 | % | 0.345
O=C(O)CCC(=O)N1CCc2cc(S(=O)(=O)Nc3ccc4c(c3)OCCO4)ccc21 | % | 0.535
O=C1CC(Nc2ccc(N3CCOCC3)cc2)C(=O)N1c1ccccc1F (configuration not stated) | % | 1.53
COc1cccc(NC(=O)c2nnn(CCc3ccccc3)c2N)c1 | % | 2.52
Cn1c(SCC(=O)NCC2CCCO2)nc2c([nH]c3ccccc32)c1=O (configuration not stated) | % | 0.065
CNc1oc(-c2ccccc2)nc1C#N | % | -0.58
COc1cc(CN2CCN(c3cccc(C)c3C)CC2)cc(Br)c1O | % | -0.235
O=C(CSc1ncnc2c1oc1ccccc12)NCc1ccc(F)cc1 | % | -0.055
CCCCCn1c(SC(C)C(C)=O)nc2c1c(=O)[nH]c(=O)n2C (configuration not stated) | % | 2.36
Cc1ccc(Cl)cc1NC(=O)Cn1cc2c(n1)CCCC2 | % | -0.18
CCOC(=O)N1CCC(NC(=O)Cn2nc(Cc3ccncc3)c3ccccc3c2=O)CC1 | % | -0.58
CCc1ccccc1NC1c2ccccc2C(=O)N1Cc1ccco1 (configuration not stated) | % | 2.31
COc1ccc(N2C(=O)CCC(C(=O)NCc3ccccn3)C2c2ccc(OC)c(OC)c2)cc1 (configuration not stated) | % | 1.01
COc1ccccc1CNc1ncnc2c1cnn2-c1ccccc1 | % | 0.575
COc1ccc(CNC(=O)CCCNS(=O)(=O)c2cccc3nonc23)cc1 | % | 1.31
Cc1ccccc1NC(=O)CN(C)S(=O)(=O)c1cccc2cccnc12 | % | 1.74
Cc1cc(C)n(-c2nc(C)nc(NCc3ccccc3)n2)n1 | % | 0.215
CC(C)c1nnc(NC(=O)CN2C(=O)c3ccccc3C2=O)s1 | % | 1.61
CCOC(=O)NC(Nc1ccc(C)cn1)(C(F)(F)F)C(F)(F)F | % | 0.545
Cc1cc(C)c2c(n1)nn1c(C)c(CCC(=O)NCc3ccco3)c(C)nc21 | % | 0.545
CCC1CCCCN1C(=O)c1cc2cc(Br)ccc2oc1=O (configuration not stated) | % | 0.68
O=C(Cn1cnc2c(cnn2-c2ccc(Cl)cc2)c1=O)NC1CCCCC1 | % | 3.79
O=C(O)c1n[nH]c2ccccc12 | % | 0.89
COCCCN1C(=O)C(O)=C(C(=O)c2ccc(C)o2)C1c1cccc(Br)c1 (configuration not stated) | % | -0.2
O=C(Cn1cnc2c(nnn2-c2ccccc2)c1=O)NCC1CCCO1 (configuration not stated) | % | 1.41
O=C(CCSc1ccccc1)NCCSc1ccccn1 | % | 2.69
CN(CCNC(=O)C1CC(=O)N(C2CCCC2)C1)Cc1ccccc1 (configuration not stated) | % | 0.74
CC1CCc2nn(CC(=O)NCc3ccco3)cc2C1 (configuration not stated) | % | 2.08
O=C(NC1CCCCCCC1)c1c(O)c2ccccc2[nH]c1=O | % | 2.4
CC(C)(C)c1ccc(OCC(O)CS(=O)(=O)c2ccccn2)cc1 (configuration not stated) | % | -0.5
